Values compiled from the RNAGym collection of RNA variant scans (doi:10.7554/elife.80360).

B1: HDV Ribozyme (parent)
chain: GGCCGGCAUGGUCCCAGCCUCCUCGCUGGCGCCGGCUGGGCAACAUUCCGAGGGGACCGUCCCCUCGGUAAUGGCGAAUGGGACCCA

- Variants of: B1
- procedure summary: self-cleavage, relative activity (ratio to wild type); higher = more cleavage; co-transcriptional
Assign 1 to entries whose self-cleavage meets or exceeds 0.2; assign 0 to the rest.

mut	answer label
A8U G68A	1
C32U G50U	1
C61G C84G	1
G2A U20A	0
C15U C64G	1
G38A A70G	0
G38U C66G	0
G17A U23C	1
C13A C48U	1
C32A G82C	0
A51U U79C	1
G28C G67C	0
U47C C75A	1
U47C C84U	1
U20G G50A	0
C19G G28C	1
C15A G31C	0
C15G G55A	1
C44A U69C	1
U46G U79G	1
U23A U47A	1
A16U G38A	0
A71C C86G	1
G10A C57U	1
G59A C84G	1
C7U G80U	0
C24G A45U	0
G29C U72C	0
C21A C41G	0
C18U C36A	0
U23A A51U	1
U12G C48G	1
G5U A78C	0
U47C C66A	1
G17A C48G	1
C14A G80C	0
C19G G31U	0
U46G A87U	1
A8U U47G	1
G5C A77U	0
C75U C86U	0
C24G G81C	0
A45G G53A	1
G6C C22G	0
G52U U60A	1
C19A G73U	0
A45G A51U	1
G1C U23G	1
U60C G74C	1
C19U C86G	0
U12A C41G	0
C24G G53A	0
C18A U23G	0
U23A G35U	1
C7U C18A	0
A42G U79C	0
U47A U60C	1
G38A A56C	0
C36U U46A	1
C36G U69G	0
G6A C85U	1
G1C G29U	0
C3G G53C	1
G6U G29C	0
G11A C44A	0
G5C A42G	0
C41A G81C	0
U23C G39A	1
U9A C36A	0
G59A G73U	1
G31C A78C	0
C7A C49U	1
G2U C26U	0
G55A C85U	1
C75A A87G	1
C22G C84U	0
U12C U69A	0
C15U C36U	1
G28C C84A	0
G6U A42U	0
C14G C32A	0
G25A A71G	0
A8U G76A	1
C3G A87U	1
C26G G74U	1
G11A G31U	0
G28C U65A	0
G17U G68C	1
U65C C85G	1
C21G G55A	0
